Tested on: UO-31 renal
Test: NCI-60 one-dose screen, 48 h
Conditions: 10 µM unless noted
About 83,000 compounds went through this panel and 20% of them were active in at least one assay; those are over-represented in the sample as a whole. Calls of active or inactive are those of the source. The calls were made as follows: active = growth percent below 10; inactive = the rest.
Respond with a class label; see active, inactive

Below are worked cases with known answers.
CCCCCCCCCCCCCC1=NCC[N+]1(CCO)Cc1ccccc1 (stereo unspecified) : active
O=C1Nc2ccc(Cl)cc2/C1=N/c1nc(-c2ccc(F)cc2)cs1 : inactive
COc1ccc2[nH]c(-c3ccccc3)c(C=C(C#N)C#N)c2c1 : inactive
COc1ccc(-c2cc(-c3nnc(SCC(=O)Nc4ccc(C(C)=O)cc4)o3)c3ccccc3n2)cc1 : active
O=c1[nH]nc(-c2ccc(Br)cc2)c2sc(NC(=S)Nc3ccc(Cl)cc3)nc12 : inactive

INPUT: Called result for COc1ccc(Cl)c([N+](=O)[O-])c1
OUTPUT: inactive

INPUT: Called result for O=S(=O)(O)c1ccc(N=NSc2ccc3ccccc3c2)cc1
OUTPUT: inactive
